Reference for the values: patent US20100298141A1

# System: redroot pigweed
# protocolNotes: Test A pre-/postemergence greenhouse test
# Type: in vivo, Amaranthus retroflexus
# conditionParameters: Postemergence, 125 g ai/ha; 0 to 100 scale where 0 is no effect and 100 is complete control
# note: exactly 50 is not below, so it is condition not met; use condition met for Plant response rating, Pigweed strictly under it

Query :: Input Cc1cc[n+]([O-])c(S(=O)(=O)Cc2c(C(F)(F)F)nn(CC(F)(F)F)c2Cl)c1 [Compound 49] ; condition: Plant response rating, Pigweed strictly below 50. Does it hold?
Result :: condition met

Query :: Input [O-][n+]1ccccc1[S+]([O-])Cc1c(C(F)(F)F)nn(CC(F)(F)F)c1Cl (centres unmarked) [Compound 43] ; condition: Plant response rating, Pigweed strictly below 50. Does it hold?
Result :: condition met

Query :: Input Cn1nc(C(F)(F)C(F)(F)F)c(CS(=O)(=O)c2cccc[n+]2[O-])c1OCC(F)(F)F [Compound 84] ; condition: Plant response rating, Pigweed strictly below 50. Does it hold?
Result :: condition met

Query :: Input Cn1nc(C(F)(F)F)c(CS(=O)(=O)c2ccc(F)c[n+]2[O-])c1OC(F)F [Compound 107] ; condition: Plant response rating, Pigweed strictly below 50. Does it hold?
Result :: condition met

Query :: Input O=S(=O)(Cc1c(C(F)(F)F)nn(CC(F)(F)F)c1Cl)c1ccc(Cl)c[n+]1[O-] [Compound 50] ; condition: Plant response rating, Pigweed strictly below 50. Does it hold?
Result :: condition met

Query :: Input Cn1nc(C(F)(F)F)c(CS(=O)(=O)c2cccc[n+]2[O-])c1OCC(F)(F)C(F)(F)F [Compound 83] ; condition: Plant response rating, Pigweed strictly below 50. Does it hold?
Result :: condition met

Query :: Input O=S(=O)(Cc1c(C(F)(F)F)nn(CC(F)(F)F)c1Cl)c1cccc[n+]1[O-] [Compound 44] ; condition: Plant response rating, Pigweed strictly below 50. Does it hold?
Result :: condition met

Query :: Input Cn1nc(C(F)(F)F)c(C[S+]([O-])c2ccc(Cl)c[n+]2[O-])c1OCC(F)(F)F (racemic) [Compound 62] ; condition: Plant response rating, Pigweed strictly below 50. Does it hold?
Result :: condition not met

Query :: Input Cn1nc(C(F)(F)F)c(C[S+]([O-])c2ccc(F)c[n+]2[O-])c1OC(F)F (centres unmarked) [Compound 58] ; condition: Plant response rating, Pigweed strictly below 50. Does it hold?
Result :: condition not met

Query :: Input Cn1nc(C(F)(F)F)c(C[S+]([O-])c2cc(C(C)(C)C)cc[n+]2[O-])c1OCC(F)(F)F (racemic) [Compound 61] ; condition: Plant response rating, Pigweed strictly below 50. Does it hold?
Result :: condition met
